- Procedure text: yeast display, Sf9 membrane polyspecificity reagent, FACS + sequencing; frameworks hold sequencing errors
Value type: polyreactivity (PSR sort gate)

| Item sequence | Result |
| --- | --- |
| QVQLVESGGGLVQAGCSLRLSCAASGSTFPYNTMGWYRQAPGKERELVAAITSSAGSTYYADSVKGRFTISRDNAKNTVYLQMNSLKPDDTAVYYCAADYIVWKGSNSYYYAGYYYWGQGTQVTVSS | low polyreactivity |
| QVQLVESGGGLVQAGGSLRLTCAASGNIFDLYAMGWYRQAPGTERELVASITSDGITYYADSVKGRFTISRDNAKNTVYLQMNSLKPEDSAVYYCAVVRSYRYLPRGDYWGQGTQVTVSS | low polyreactivity |
| QVQLVESGGGLVKAGGSLRLTCAASGRIFGPYVMGWYRQAPGKERELVAAISTSGTSTYYADSVKGRFTISRDNAKNTVYLQMNSLKPEDTAVYYCAKRSGARHRLMDYWGQGTQVTVSS | low polyreactivity |

The reported measurements were obtained from the nanobody polyreactivity screen of Harvey et al. (2022).
